TARGET OR SYSTEM: full-length HAQ STING (Homo sapiens (Human), UniProt Q86WV6, G230A/H232R/R293Q/R71H)
Sequence (Q86WV6 other isoform, or with tags, fused parts or gaps, stated change not applied): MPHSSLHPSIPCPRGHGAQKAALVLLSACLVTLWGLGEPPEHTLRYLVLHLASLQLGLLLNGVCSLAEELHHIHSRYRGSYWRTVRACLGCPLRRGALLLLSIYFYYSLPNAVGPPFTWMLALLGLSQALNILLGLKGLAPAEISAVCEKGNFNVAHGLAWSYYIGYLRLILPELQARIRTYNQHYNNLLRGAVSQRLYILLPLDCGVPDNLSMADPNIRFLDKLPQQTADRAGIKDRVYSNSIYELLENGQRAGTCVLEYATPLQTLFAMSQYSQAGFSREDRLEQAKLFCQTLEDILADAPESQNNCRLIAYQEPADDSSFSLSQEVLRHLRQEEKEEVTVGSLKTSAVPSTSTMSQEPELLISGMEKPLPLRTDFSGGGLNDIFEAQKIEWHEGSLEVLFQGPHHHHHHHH
PROTOCOL SUMMARY: 3H-cGAMP filtration binding assay (HAQ STING)
CONDITION LABEL: competition with tritiated cGAMP, HAQ STING membrane
Excerpt: The ability of compounds to bind STING is quantified by the ability to compete with tritiated cGAMP ligand for human STING receptor membrane using a radioactive filter-binding assay. […] The ability of compounds to bind STING is quantified by their ability to compete with tritiated cGAMP ligand for human STING receptor membrane using a radioactive filter-binding assay. […]
So basically, the class depends on measured EC50, and the ranges are low value: < 4 nM; medium value: ≥ 4 nM and < 20 nM; high value: ≥ 20 nM

[
  {
    "MOLECULE": "C[C@@H]1OP(=O)(O)O[C@@H]2[C@H](F)[C@@H](COP(=O)(O)O[C@@H]3[C@H](O)[C@@H]1O[C@H]3n1cnc3c(N)ncnc31)O[C@H]2n1cnc2c(=O)[nH]c(N)nc21",
    "ASSIGNED CLASS": "high value"
  }
]

query: Each molecule maps to one class by EC50. Which class for Nc1nc2c(ncn2[C@@H]2O[C@@H]3COP(=O)(O)O[C@@H]4[C@@H](F)[C@@H](COP(=O)(O)O[C@@H]2[C@@H]3F)O[C@H]4n2cnc3c(N)ncnc32)c(=O)[nH]1 ?
result: medium value

query: Each molecule maps to one class by EC50. Which class for C[C@H]1OP(=O)(O)O[C@@H]2[C@H](F)[C@@H](COP(=O)(O)O[C@@H]3[C@H](O)[C@@H]1O[C@H]3n1cnc3c(N)ncnc31)O[C@H]2n1cnc2c(=O)[nH]c(N)nc21 ?
result: high value

====

TARGET OR SYSTEM: full-length HAQ STING (Homo sapiens (Human), UniProt Q86WV6, G230A/H232R/R293Q/R71H)
PROTOCOL SUMMARY: 3H-cGAMP filtration binding assay (HAQ STING)
CONDITION LABEL: competition with tritiated cGAMP, HAQ STING membrane
Provide the recorded EC50 for the entries that follow.
Give bare numbers, in nM.

// for each compound below, give its EC50
1. Nc1nc2c(ncn2[C@@H]2O[C@@H]3COP(=O)(O)O[C@@H]4[C@H](O)[C@@H](COP(=O)(O)O[C@@H]2[C@@H]3F)O[C@H]4n2cnc3c(N)ncnc32)c(=O)[nH]1
2. Nc1nc2c(ncn2[C@@H]2O[C@@H]3COP(=O)(O)O[C@@H]4C[C@@H](COP(=O)(O)O[C@@H]2C3)O[C@H]4n2cnc3c(N)ncnc32)c(=O)[nH]1
3. Nc1nc2c(ncn2[C@@H]2O[C@@H]3COP(=O)(O)O[C@@H]4[C@H](F)[C@@H](COP(=O)(O)O[C@@H]2[C@@H]3O)O[C@H]4n2cnc3c(N)ncnc32)c(=O)[nH]1

result:
1. 3.6
2. 674
3. 1.8

====

Tested on: THP1 cells
PROTOCOL SUMMARY: IFN-β secretion in THP1 cell culture (5 h)
Type: cell-based, human
CONDITION LABEL: Homo sapiens, THP-1, 5 h, IFN-β secretion, THP1 cells, 5 h, 30 μM; read-out: % Effect at 30 μM relative to 2′3′-cGAMP
Provide the recorded activation at 30 µM for the entries that follow.
Numbers only, in %.

# example entries with known answers
[
  {
    "COMPOUND": "Nc1nc2c(ncn2[C@@H]2O[C@@H]3COP(=O)(S)OC4C(O)[C@@H](COP(=O)(S)OC2[C@@H]3O)O[C@H]4n2cnc3c(N)ncnc32)c(=O)[nH]1 (stereo in doubt)",
    "RESULT VALUE": 132
  },
  {
    "COMPOUND": "[N-]=[N+]=N[C@H]1[C@H]2OP(=O)(O)OC[C@H]3O[C@@H](n4cnc5c(N)ncnc54)[C@H](OP(=O)(O)OC[C@H]1O[C@H]2n1cnc2c(=O)[nH]c(N)nc21)[C@@H]3O",
    "RESULT VALUE": 145
  }
]

// for each compound below, give its activation at 30 µM
1. Nc1nc2c(ncn2[C@@H]2O[C@@H]3COP(=O)(S)O[C@@H]4[C@H](O)[C@@H](COP(=O)(S)O[C@@H]2[C@@H]3O)O[C@H]4n2cnc3c(=O)[nH]c(N)nc32)c(=O)[nH]1 (single isomer, unassigned)
2. Nc1nc2c(ncn2[C@@H]2O[C@@H]3COP(=O)(O)O[C@@H]4[C@H](O)[C@@H](COP(=O)(O)O[C@@H]2C3)O[C@H]4n2cnc3c(N)ncnc32)c(=O)[nH]1
3. Nc1nc2c(ncn2[C@@H]2O[C@@H]3COP(=O)(O)O[C@@H]4[C@H](F)[C@@H](COP(=O)(O)O[C@@H]2[C@@H]3F)O[C@H]4n2cnc3c(N)ncnc32)c(=O)[nH]1

result:
89
123
131

Measured values drawn from patent US10738074B2 for this set.
